Listed below: growth inhibition values for each entry.
assay.protocol: NCI Yeast Anticancer Drug Screen. Data for the mlh1 rad18 strain (AID 175)
condition.info: S. cerevisiae mlh1 rad18 strain growth inhibition; at 50.0 µM (retest, dose inferred, filed as 5.0); stronger effect = higher value
This is part of a sample that, as a whole, favours compounds with a hit. Of some 79,000 tested, about 15% had one in any assay.
reported.endpoint: growth inhibition (%)

>  <compound>
CC(=O)c1c2c(cc3c1CC1(Cc4cc5c(cc4C1)C(=O)CCC5)C3)CCCC2 (centres undefined)

>  <reported.endpoint>
growth inhibition

>  <unit.name>
%

>  <result.number>
29

$$$$
>  <compound>
Cc1ccc(C(OS(=O)(=O)c2ccc(C)cc2)C(F)(F)F)cc1 (centres undefined)

>  <reported.endpoint>
growth inhibition

>  <unit.name>
%

>  <result.number>
2

$$$$
>  <compound>
COC(=O)c1nnc(C(=O)OC)c2c1[nH]c1ccccc12

>  <reported.endpoint>
growth inhibition

>  <unit.name>
%

>  <result.number>
52

$$$$
>  <compound>
CCOC(=O)c1cn(CC)c2cc(-n3cccc3)ccc2c1=O

>  <reported.endpoint>
growth inhibition

>  <unit.name>
%

>  <result.number>
50

$$$$
>  <compound>
CCCC(=O)c1cc(O)c(O)c(CN(C)Cc2cc(Cl)cc(C)c2O)c1O

>  <reported.endpoint>
growth inhibition

>  <unit.name>
%

>  <result.number>
96

$$$$
>  <compound>
C=Nc1ccc2ccccc2c1Cc1c(O)ccc2ccccc12

>  <reported.endpoint>
growth inhibition

>  <unit.name>
%

>  <result.number>
99

$$$$
>  <compound>
CC1C[N+](C)(C)C(C)C(=O)C1(c1ccccc1)c1ccccc1 (centres undefined)

>  <reported.endpoint>
growth inhibition

>  <unit.name>
%

>  <result.number>
-4

$$$$
>  <compound>
O=C1OC(=O)C2C=CC=CC12 (centres undefined)

>  <reported.endpoint>
growth inhibition

>  <unit.name>
%

>  <result.number>
2

$$$$
>  <compound>
CN(C)CCOC1OCN(C)CC1(C)C (centres undefined)

>  <reported.endpoint>
growth inhibition

>  <unit.name>
%

>  <result.number>
-12

$$$$
>  <compound>
O=C(CSc1nnc(-c2ccc(N=Cc3ccc(Cl)cc3)cc2)o1)Nc1ccc(Cl)cc1Cl

>  <reported.endpoint>
growth inhibition

>  <unit.name>
%

>  <result.number>
99

$$$$
>  <compound>
O=C(O)Cc1ccc2c(c1O)C(=O)c1ccccc1C2=O

>  <reported.endpoint>
growth inhibition

>  <unit.name>
%

>  <result.number>
29

$$$$
>  <compound>
O=C(Nc1ccc(-c2cn3ccccc3n2)cc1)c1cc(Br)ccc1O

>  <reported.endpoint>
growth inhibition

>  <unit.name>
%

>  <result.number>
13

$$$$
>  <compound>
Clc1ccc(N2CCN(CCCN3CCN(c4ccc(Cl)cc4)CC3)CC2)cc1

>  <reported.endpoint>
growth inhibition

>  <unit.name>
%

>  <result.number>
42

$$$$
>  <compound>
COc1cccc2c1C(=O)c1c(O)c(CCl)cc(O)c1C2=O

>  <reported.endpoint>
growth inhibition

>  <unit.name>
%

>  <result.number>
97

$$$$
>  <compound>
CC1CCC2(CC1)OCC(C)O2 (centres undefined)

>  <reported.endpoint>
growth inhibition

>  <unit.name>
%

>  <result.number>
1

$$$$
>  <compound>
Oc1c(Cl)c(Cl)c(O)c2c1CCCC2

>  <reported.endpoint>
growth inhibition

>  <unit.name>
%

>  <result.number>
99

$$$$
>  <compound>
O=C(/C=C/c1ccccc1)c1cc2c(cc1O)OCO2

>  <reported.endpoint>
growth inhibition

>  <unit.name>
%

>  <result.number>
-1

$$$$
>  <compound>
O=c1ccc2ccc(Cl)cc2[nH]1

>  <reported.endpoint>
growth inhibition

>  <unit.name>
%

>  <result.number>
20

$$$$
>  <compound>
CC12CC[C@@H](C(C)(C)O)C1[C@@H](O)CC1(C)C2CCC2[C@@]3(C)CC[C@H](O)C(C)(C)C3C(O)C[C@]21C (some centres undefined)

>  <reported.endpoint>
growth inhibition

>  <unit.name>
%

>  <result.number>
98

$$$$
>  <compound>
CCCCCCCCCCCC(=O)c1c(O)c2ccccc2oc1=O

>  <reported.endpoint>
growth inhibition

>  <unit.name>
%

>  <result.number>
-4

$$$$
>  <compound>
c1ccc(Cn2nnc(-c3ccccc3)c2-c2ccccc2)cc1

>  <reported.endpoint>
growth inhibition

>  <unit.name>
%

>  <result.number>
94

$$$$
>  <compound>
CN(C)N=Nc1c(-c2cccs2)n[nH]c1C(F)(F)F

>  <reported.endpoint>
growth inhibition

>  <unit.name>
%

>  <result.number>
99

$$$$
>  <compound>
CN(C)C(=S)Oc1ccc(C(C)(C)C)cc1

>  <reported.endpoint>
growth inhibition

>  <unit.name>
%

>  <result.number>
-123

$$$$
>  <compound>
O=C1c2ccccc2C(=O)N1/N=C\c1ccccc1[N+](=O)[O-]

>  <reported.endpoint>
growth inhibition

>  <unit.name>
%

>  <result.number>
93

$$$$
